System: Bartonella quintana
test-protocol: Antibacterial activity against Bartonella quintana ATCC VR358 at 20 ug per disc after 7 days by Kirby-Bauer disc diffusion assay
Type: functional
reported-conditions: ATCC VR358, 168 h, read-out: DIZ
Mark true for reported zone of inhibition at 20 µg/disc of 20 mm or greater; mark false for anything smaller.

molecule	category-label
CC(C)(C)C(=O)N1CCN(c2cc3c(cc2F)c(=O)c(C(=O)O)cn3C2CC2)CC1	true
CCCCCCCC(=O)N1CCN(c2cc3c(cc2F)c(=O)c(C(=O)O)cn3C2CC2)CC1	false
CC(CC(=O)N1CCN(c2cc3c(cc2F)c(=O)c(C(=O)O)cn3C2CC2)CC1)CC(C)(C)C (stereo not drawn)	false
CCCC(C)C(=O)N1CCN(c2cc3c(cc2F)c(=O)c(C(=O)O)cn3C2CC2)CC1 (stereo not drawn)	true
CCCC(=O)N1CCN(c2cc3c(cc2F)c(=O)c(C(=O)O)cn3C2CC2)CC1	true
CCC(CC)C(=O)N1CCN(c2cc3c(cc2F)c(=O)c(C(=O)O)cn3C2CC2)CC1	false
CCCCC(CC)C(=O)N1CCN(c2cc3c(cc2F)c(=O)c(C(=O)O)cn3C2CC2)CC1 (stereo not drawn)	false

Attention now turns to another entry.
[in] Check if zone of inhibition at 20 µg/disc >= 20 mm (inclusive). Item: CCCCCCCCCC(=O)N1CCN(c2cc3c(cc2F)c(=O)c(C(=O)O)cn3C2CC2)CC1
[out] false
